# Tested on: SW13 (Other Solid Carcinomas);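 note: after 72 h of two-drug dosing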
# protocolNotes: Bliss excess, mean over the matrix (fraction); higher = more synergy
Please respond with reported Bliss excess for every item in the list.
The response must contain the number and no unit.

Documented Bliss excess of COc1cccc(OCCCN)c1-c1cc(Nc2cnc(C#N)cn2)n[nH]1 [Prexasertib] + CCc1c2c(nc3ccc(O)cc13)-c1cc3c(c(=O)n1C2)COC(=O)[C@]3(O)CC [SN-38] (first compound max 1 µM, 7x7, partner max 0.3 µM) : 0.0459

Per the records, this compound ( CN(CCO)CC[C@H](CSc1ccccc1)Nc1ccc(S(=O)(=O)NC(=O)c2ccc(N3CCC([C@@H](O)c4ccccc4-c4ccc(Cl)cc4)CC3)cc2)cc1S(=O)(=O)C(F)(F)F [AZD4320] + C[C@@H](Nc1cc(F)cc(F)c1)c1cc(C(=O)N(C)C)cc2c(=O)cc(N3CCOCC3)oc12 [AZD8186] (first compound max 1 µM, 7x7, partner max 3 µM) ) has Bliss excess equal to 0.0064

COc1cccc(OCCCN)c1-c1cc(Nc2cnc(C#N)cn2)n[nH]1 [Prexasertib] + CN(C)CCCOc1ccc(-c2ccc3ncc4c(c3c2)n(C2CCOCC2)c(=O)n4C)cn1 [AZD0156] (first compound max 1 µM, 7x7, partner max 1 µM) yielded Bliss excess of 0.0256

Entry N#Cc1cnc(Nc2cc(NC[C@H]3CNCCO3)c(C(F)(F)F)cn2)cn1 [SRA737] + Nc1ccn([C@@H]2O[C@H](CO)[C@@H](O)C2(F)F)c(=O)n1 [Gemcitabine] (first compound max 10 µM, 7x7, partner max 0.3 µM) , Bliss excess reported as 0.0367

meta.source: the supplement of paper PMC11061612
